Test: Mitotoxicity / Mitotox safety margin (therapeutic window)
Type: cell-based
Conditions: highest safe dose/EC50
Is Mito-Safety Index (highest safe dose/EC50) at least 60? Then yes. If not, no.

Sample answers from the record:
| Compound | Assigned class |
| --- | --- |
| Fc1ccc2c(c1)CC[C@@H](N1C[C@H]3COC[C@H]3C1)[C@@H]2Nc1ncnc2[nH]c(C(F)(F)F)cc12 (single isomer, unassigned) | no |
| Fc1ccc2c(c1)CC[C@H](N1C[C@H]3COC[C@@H]3C1)[C@H]2Nc1ncnc2[nH]c(C(F)(F)F)cc12 | yes |
| Fc1ccc2c(c1)CC[C@H](N1C[C@H]3COC[C@H]3C1)[C@H]2Nc1ncnc2[nH]c(C3CC3)cc12 | no |
| C[C@@H]1CN([C@H]2COc3cc(F)ccc3[C@@H]2Nc2ncnc3[nH]c(C4CC4)cc23)CCO1 | no |
| COC1CN([C@@H]2COc3ccccc3[C@H]2Nc2ncnc3[nH]c(C4CC4)cc23)C1 | yes |
| [2H]C([2H])([2H])OC1CN([C@H]2COc3ccccc3[C@@H]2Nc2ncnc3[nH]c(C(F)(F)F)cc23)C1 (single isomer, unassigned) | no |
| Fc1ccc2c(c1)OC[C@H](N1C[C@@H]3COC[C@H]3C1)[C@H]2Nc1ncnc2[nH]c(C3CC3)cc12 (single isomer, unassigned) [EP-0040644] | yes |
| C[C@H]1CN([C@H]2CCc3ccccc3[C@@H]2Nc2ncnc3[nH]c(C(F)(F)F)cc23)CCO1 (single isomer, unassigned) | yes |
| COC[C@@H]1CCN([C@H]2COc3ccccc3[C@@H]2Nc2ncnc3[nH]c(C(F)(F)F)cc23)C1 (single isomer, unassigned) | no |
| Fc1cccc2c1CC[C@@H](N1C[C@H]3COC[C@H]3C1)[C@@H]2Nc1ncnc2[nH]c(C3CC3)cc12 (single isomer, unassigned) | yes |

Could you please find out whether C[C@@H]1CN([C@@H]2COc3ccccc3[C@H]2Nc2ncnc3[nH]c(C4CC4)cc23)CCO1 has Mito-Safety Index (highest safe dose/EC50) that meets 60 or exceeds it?
no

Could you please find out whether C[C@@H]1CN([C@@H]2COc3ccccc3[C@H]2Nc2ncnc3[nH]c(C(F)(F)F)cc23)C[C@H](C)O1 has Mito-Safety Index (highest safe dose/EC50) that meets 60 or exceeds it?
no

Could you please find out whether C[C@H]1CN([C@@H]2COc3cc(F)ccc3[C@H]2Nc2ncnc3[nH]c(C4CC4)cc23)CCO1 has Mito-Safety Index (highest safe dose/EC50) that meets 60 or exceeds it?
no

FYI, the data here is from patent US20240018146A1.
